Listing: binding signal (PBM E-score (-0.5 to 0.5)) of selected sequences
targetEntity: Cin5 (Saccharomyces cerevisiae)
Sequence: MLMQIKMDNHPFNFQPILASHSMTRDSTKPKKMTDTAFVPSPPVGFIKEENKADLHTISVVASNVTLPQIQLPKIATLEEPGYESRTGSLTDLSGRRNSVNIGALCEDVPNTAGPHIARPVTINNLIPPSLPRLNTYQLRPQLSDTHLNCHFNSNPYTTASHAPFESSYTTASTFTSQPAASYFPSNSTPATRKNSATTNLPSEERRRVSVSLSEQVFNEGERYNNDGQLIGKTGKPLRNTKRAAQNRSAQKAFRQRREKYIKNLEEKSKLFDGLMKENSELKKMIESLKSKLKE
conditionsUsed: 100 nM
readoutLabel: binding signal (PBM E-score (-0.5 to 0.5))

{"sequenceCode": "CGTAAGCA (double strand) [8-mer CGTAAGCA]", "measuredNumber": 0.463}
{"sequenceCode": "TTACATAA (double strand) [8-mer TTACATAA]", "measuredNumber": 0.488}
{"sequenceCode": "ATTACGTA (double strand) [8-mer ATTACGTA]", "measuredNumber": 0.49}
{"sequenceCode": "TTACCTAA (double strand) [8-mer TTACCTAA]", "measuredNumber": 0.451}
{"sequenceCode": "ACGTAATC (double strand) [8-mer ACGTAATC]", "measuredNumber": 0.496}
{"sequenceCode": "ACGTAATA (double strand) [8-mer ACGTAATA]", "measuredNumber": 0.455}
{"sequenceCode": "TTACGTAA (double strand) [8-mer TTACGTAA]", "measuredNumber": 0.497}

* * *

Listing: binding signal (PBM E-score (-0.5 to 0.5)) of selected sequences
targetEntity: Ecm22 (Saccharomyces cerevisiae) (UniProt Q05958)
Sequence: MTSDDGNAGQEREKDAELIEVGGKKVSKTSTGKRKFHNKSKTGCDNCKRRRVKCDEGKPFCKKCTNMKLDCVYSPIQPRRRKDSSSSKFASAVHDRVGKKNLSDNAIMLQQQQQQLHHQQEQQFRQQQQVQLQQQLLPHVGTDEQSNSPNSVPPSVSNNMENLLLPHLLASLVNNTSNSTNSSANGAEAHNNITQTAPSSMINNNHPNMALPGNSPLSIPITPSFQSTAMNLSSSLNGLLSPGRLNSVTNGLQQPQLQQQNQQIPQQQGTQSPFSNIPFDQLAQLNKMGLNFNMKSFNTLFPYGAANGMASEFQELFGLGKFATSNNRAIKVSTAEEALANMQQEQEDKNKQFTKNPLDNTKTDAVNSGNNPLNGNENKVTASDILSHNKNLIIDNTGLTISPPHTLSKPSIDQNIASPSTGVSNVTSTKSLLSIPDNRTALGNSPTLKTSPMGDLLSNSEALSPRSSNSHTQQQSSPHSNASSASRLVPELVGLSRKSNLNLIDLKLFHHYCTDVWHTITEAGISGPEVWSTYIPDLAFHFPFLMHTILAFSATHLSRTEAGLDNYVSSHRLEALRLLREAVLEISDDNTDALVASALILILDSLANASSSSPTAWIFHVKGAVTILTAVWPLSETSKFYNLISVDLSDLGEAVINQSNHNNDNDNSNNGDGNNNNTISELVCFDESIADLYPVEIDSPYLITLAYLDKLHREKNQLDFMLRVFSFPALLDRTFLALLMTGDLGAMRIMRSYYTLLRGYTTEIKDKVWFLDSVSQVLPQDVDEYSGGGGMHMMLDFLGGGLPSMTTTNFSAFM
conditionsUsed: 200 nM
readoutLabel: binding signal (PBM E-score (-0.5 to 0.5))

{"sequenceCode": "CTAAACGA (double strand) [8-mer CTAAACGA]", "measuredNumber": 0.493}
{"sequenceCode": "CTATACGA (double strand) [8-mer CTATACGA]", "measuredNumber": 0.496}
{"sequenceCode": "GGTACGAC (double strand) [8-mer GGTACGAC]", "measuredNumber": 0.495}
{"sequenceCode": "CTCGTTTA (double strand) [8-mer CTCGTTTA]", "measuredNumber": 0.495}

* * *

targetEntity: Yap3 (Saccharomyces cerevisiae) (UniProt P38749)
Sequence: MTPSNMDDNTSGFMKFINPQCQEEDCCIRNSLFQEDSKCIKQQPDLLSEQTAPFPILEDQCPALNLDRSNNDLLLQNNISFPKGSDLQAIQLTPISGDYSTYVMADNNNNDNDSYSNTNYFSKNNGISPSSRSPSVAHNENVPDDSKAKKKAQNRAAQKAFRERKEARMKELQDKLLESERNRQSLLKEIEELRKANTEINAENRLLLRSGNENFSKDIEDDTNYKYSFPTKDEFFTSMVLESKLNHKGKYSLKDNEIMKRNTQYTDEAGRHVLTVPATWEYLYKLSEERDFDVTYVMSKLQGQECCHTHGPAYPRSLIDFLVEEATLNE
conditionsUsed: 100 nM
readoutLabel: binding signal (PBM E-score (-0.5 to 0.5))

{"sequenceCode": "ATTACTAA (double strand) [8-mer ATTACTAA]", "measuredNumber": 0.479}
{"sequenceCode": "ATTACGTA (double strand) [8-mer ATTACGTA]", "measuredNumber": 0.478}
{"sequenceCode": "TTACGTAA (double strand) [8-mer TTACGTAA]", "measuredNumber": 0.496}
{"sequenceCode": "ACGTAATC (double strand) [8-mer ACGTAATC]", "measuredNumber": 0.462}
{"sequenceCode": "ATTAGTAA (double strand) [8-mer ATTAGTAA]", "measuredNumber": 0.487}

* * *

targetEntity: Zap1 (Saccharomyces cerevisiae)
Sequence: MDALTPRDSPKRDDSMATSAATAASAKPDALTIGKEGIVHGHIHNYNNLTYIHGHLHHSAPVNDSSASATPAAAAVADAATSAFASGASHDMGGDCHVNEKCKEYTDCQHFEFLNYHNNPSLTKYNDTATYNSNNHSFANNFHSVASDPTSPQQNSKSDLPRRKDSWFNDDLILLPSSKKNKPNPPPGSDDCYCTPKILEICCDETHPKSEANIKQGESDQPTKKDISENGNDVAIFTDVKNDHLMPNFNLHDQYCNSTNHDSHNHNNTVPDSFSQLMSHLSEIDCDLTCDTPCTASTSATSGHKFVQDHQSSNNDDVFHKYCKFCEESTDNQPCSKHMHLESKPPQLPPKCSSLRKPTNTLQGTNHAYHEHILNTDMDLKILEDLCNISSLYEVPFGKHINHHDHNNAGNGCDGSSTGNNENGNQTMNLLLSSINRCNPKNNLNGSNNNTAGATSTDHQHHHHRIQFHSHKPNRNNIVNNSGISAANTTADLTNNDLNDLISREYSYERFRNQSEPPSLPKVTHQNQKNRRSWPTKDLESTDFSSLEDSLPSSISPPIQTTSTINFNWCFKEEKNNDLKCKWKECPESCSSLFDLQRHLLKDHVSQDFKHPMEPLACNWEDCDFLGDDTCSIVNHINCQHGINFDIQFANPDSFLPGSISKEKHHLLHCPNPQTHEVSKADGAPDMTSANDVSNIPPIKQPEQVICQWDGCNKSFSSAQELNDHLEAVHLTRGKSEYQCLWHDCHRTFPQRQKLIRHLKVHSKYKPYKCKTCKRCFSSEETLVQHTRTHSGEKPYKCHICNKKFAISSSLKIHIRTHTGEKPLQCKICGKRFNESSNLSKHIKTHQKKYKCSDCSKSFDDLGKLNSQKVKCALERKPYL
conditionsUsed: 200 nM
readoutLabel: binding signal (PBM E-score (-0.5 to 0.5))

{"sequenceCode": "AGGGTTAT (double strand) [8-mer AGGGTTAT]", "measuredNumber": 0.49}
{"sequenceCode": "AGGGGTTA (double strand) [8-mer AGGGGTTA]", "measuredNumber": 0.479}
{"sequenceCode": "AAAGGTTA (double strand) [8-mer AAAGGTTA]", "measuredNumber": 0.479}
{"sequenceCode": "AAGGGTTA (double strand) [8-mer AAGGGTTA]", "measuredNumber": 0.489}
{"sequenceCode": "AGAGGTTA (double strand) [8-mer AGAGGTTA]", "measuredNumber": 0.476}
{"sequenceCode": "AGGTTACC (double strand) [8-mer AGGTTACC]", "measuredNumber": 0.476}
{"sequenceCode": "CATAACCC (double strand) [8-mer CATAACCC]", "measuredNumber": 0.482}
{"sequenceCode": "GGTTATGA (double strand) [8-mer GGTTATGA]", "measuredNumber": 0.48}
{"sequenceCode": "CGTAACCC (double strand) [8-mer CGTAACCC]", "measuredNumber": 0.482}

* * *

Listing: binding signal (PBM E-score (-0.5 to 0.5)) of selected sequences
targetEntity: Sut1 (Saccharomyces cerevisiae)
Sequence: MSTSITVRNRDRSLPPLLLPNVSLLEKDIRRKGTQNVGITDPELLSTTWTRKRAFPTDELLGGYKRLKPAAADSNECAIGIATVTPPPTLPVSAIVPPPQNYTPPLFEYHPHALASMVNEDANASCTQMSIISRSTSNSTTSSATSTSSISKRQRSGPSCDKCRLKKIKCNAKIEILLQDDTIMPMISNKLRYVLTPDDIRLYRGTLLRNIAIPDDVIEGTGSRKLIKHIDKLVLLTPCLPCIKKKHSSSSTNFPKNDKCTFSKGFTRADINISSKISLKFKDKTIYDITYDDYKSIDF
conditionsUsed: 200 nM
readoutLabel: binding signal (PBM E-score (-0.5 to 0.5))

{"sequenceCode": "CGGACTTC (double strand) [8-mer CGGACTTC]", "targetEntity": "Sut1 (Saccharomyces cerevisiae)", "measuredNumber": 0.496}
{"sequenceCode": "AAACTCCG (double strand) [8-mer AAACTCCG]", "targetEntity": "Sut1 (Saccharomyces cerevisiae)", "measuredNumber": 0.498}
{"sequenceCode": "AACTCCGT (double strand) [8-mer AACTCCGT]", "targetEntity": "Sut1 (Saccharomyces cerevisiae)", "measuredNumber": 0.496}
{"sequenceCode": "AACTCCGG (double strand) [8-mer AACTCCGG]", "targetEntity": "Sut1 (Saccharomyces cerevisiae)", "measuredNumber": 0.499}
{"sequenceCode": "AAAGTCCG (double strand) [8-mer AAAGTCCG]", "targetEntity": "Sut1 (Saccharomyces cerevisiae)", "measuredNumber": 0.496}
{"sequenceCode": "AACTCCGA (double strand) [8-mer AACTCCGA]", "targetEntity": "Sut1 (Saccharomyces cerevisiae)", "measuredNumber": 0.499}
{"sequenceCode": "CAACTCCG (double strand) [8-mer CAACTCCG]", "targetEntity": "Sut1 (Saccharomyces cerevisiae)", "measuredNumber": 0.497}
{"sequenceCode": "AAGTCCGG (double strand) [8-mer AAGTCCGG]", "targetEntity": "Sut1 (Saccharomyces cerevisiae)", "measuredNumber": 0.497}
{"sequenceCode": "CAAGTCCG (double strand) [8-mer CAAGTCCG]", "targetEntity": "Sut1 (Saccharomyces cerevisiae)", "measuredNumber": 0.492}
{"sequenceCode": "ACTCCGGA (double strand) [8-mer ACTCCGGA]", "targetEntity": "Sut1 (Saccharomyces cerevisiae)", "measuredNumber": 0.495}
{"sequenceCode": "ACTCCGAG (double strand) [8-mer ACTCCGAG]", "targetEntity": "Sut1 (Saccharomyces cerevisiae)", "measuredNumber": 0.494}
{"sequenceCode": "AAGTCCGA (double strand) [8-mer AAGTCCGA]", "targetEntity": "Sut1 (Saccharomyces cerevisiae)", "measuredNumber": 0.498}
{"sequenceCode": "CGGAGTTC (double strand) [8-mer CGGAGTTC]", "targetEntity": "Sut1 (Saccharomyces cerevisiae)", "measuredNumber": 0.498}
{"sequenceCode": "ACTCCGAA (double strand) [8-mer ACTCCGAA]", "targetEntity": "Sut1 (Saccharomyces cerevisiae)", "measuredNumber": 0.495}
{"sequenceCode": "CGGAGTTA (double strand) [8-mer CGGAGTTA]", "targetEntity": "Sut1 (Saccharomyces cerevisiae)", "measuredNumber": 0.495}
